Origin of measurements: patent US20260297080A1

target_entity: CDK2/Cyclin E1 (Homo sapiens, UniProt P24941)
experiment: CDK2/Cyclin E1 Biochemical Assay (TR-FRET), 0.060 mM ATP
assay_setup: 0.15 μM Rb (Ser780)-biotin substrate, pH7.0, 60 min preincubation, 120 min reaction, room temperature
pIC50: −log10 of the molar value.
measurement_kind: pIC50

CC(C)NC(=O)O[C@H]1CC[C@@H](c2cc(Nc3ccc4c(c3F)CN(C3CCC(=O)NC3)S4(=O)=O)n[nH]2)C1 (relative stereo) : 8.00

A = CC(C)CNC(=O)O[C@H]1CC[C@@H](c2cc(Nc3cc4c(cc3F)N(CCO)S(=O)(=O)C4)n[nH]2)C1 (relative stereo)
B = CN1c2ccc(Nc3cc([C@@H]4CC[C@H](OC(=O)NC(C)(C)CO)C4)[nH]n3)c(F)c2CS1(=O)=O (single isomer, unassigned) [Example 327b]
input: I would appreciate it if you could say which entry, A or B , has the lower pIC50 value. Answer = label.
output: A

---

target_entity: CDK2/Cyclin E1 (Homo sapiens, UniProt P24941)
experiment: CDK2/Cyclin E1 Biochemical Assay (TR-FRET), 0.060 mM ATP
assay_setup: 0.15 μM Rb (Ser780)-biotin substrate, pH7.0, 60 min preincubation, 120 min reaction, room temperature
pIC50: −log10 of the molar value.
measurement_kind: pIC50

COc1c(Nc2cc([C@@H]3CC[C@H](OC(=O)NC(C)C)C3)[nH]n2)ccc2c1S(=O)(=O)NC2 (relative stereo) [Example 180] : 8.54

I = CC1(NC(=O)O[C@H]2CC[C@@H](c3cc(Nc4ccc5c(c4)CCS(=O)(=O)N5)n[nH]3)C2)CC1 (racemic) [Example 249]
II = C[C@@H](CO)NC(=O)O[C@H]1CC[C@@H](c2cc(Nc3ccc4c(c3F)CN(C3CC3)S4(=O)=O)n[nH]2)C1 (relative stereo) [Example 120]
input: I would appreciate it if you could say which entry, I or II , has the lower pIC50 value. Answer = label.
output: II

---

target_entity: CDK2/Cyclin E1 (Homo sapiens, UniProt P24941)
experiment: CDK2/Cyclin E1 Biochemical Assay (TR-FRET), 0.060 mM ATP
assay_setup: 0.15 μM Rb (Ser780)-biotin substrate, pH7.0, 60 min preincubation, 120 min reaction, room temperature
measurement_kind: IC50 (nM)

CN1Cc2c(ccc(Nc3cc([C@@H]4CC[C@H](OC(=O)NC5CCC(O)CC5)C4)[nH]n3)c2F)S1(=O)=O (single isomer, unassigned) [Example 166] : 2.9
C[C@@H](CO)NC(=O)O[C@H]1CC[C@@H](c2cc(Nc3ccc4c(c3F)CS(=O)(=O)N4C)n[nH]2)C1 (relative stereo) : 22
CC(C)NC(=O)O[C@H]1CC[C@@H](c2cc(Nc3ccc4c(c3)C(F)(F)S(=O)(=O)N4C)n[nH]2)C1 (relative stereo) : 31
CC[C@H](C)NC(=O)O[C@H]1CC[C@@H](c2cc(Nc3ccc4c(c3F)CS(=O)(=O)N4)n[nH]2)C1 (single isomer, unassigned) [Example 383b] : 1.4
CC[C@H](C)NC(=O)O[C@H]1CC[C@@H](c2cc(Nc3ccc4c(c3F)CN(C)S4(=O)=O)n[nH]2)C1 (single isomer, unassigned) [Example 123a] : 5.2
CC1(NC(=O)O[C@H]2CC[C@@H](c3cc(Nc4cc5c(cc4F)S(=O)(=O)NC5)n[nH]3)C2)CC1 (single isomer, unassigned) [Example 44b] : 2.5
CN1c2ccc(Nc3cc([C@@H]4CC[C@H](OC(=O)N[C@H]5CC[C@@H](O)CC5)C4)[nH]n3)cc2CS1(=O)=O (relative stereo) : 4.7
CCCNC(=O)O[C@H]1CC[C@@H](c2cc(Nc3ccc4c(c3)CS(=O)(=O)N4)n[nH]2)C1 (single isomer, unassigned) [Example 195a] : 12

P = CC(C)NC(=O)O[C@H]1CC[C@@H](c2cc(Nc3ccc4c(c3F)CN(CC3COC3)S4(=O)=O)n[nH]2)C1 (relative stereo)
Q = CC(C)NC(=O)O[C@H]1CC[C@@H](c2cc(Nc3ccc4c(c3F)CN(C3CC(O)C3)S4(=O)=O)n[nH]2)C1 (relative stereo)
input: Quick check, higher IC50 between P and Q ? Answer = label.
output: Q

A = CC(C)NC(=O)O[C@@H]1CC[C@H](c2cc(Nc3ccc4c(c3)NS(=O)(=O)C4)n[nH]2)C1 (stereo in doubt) [Example 303a]
B = CC(C)NC(=O)O[C@H]1CC[C@@H](c2cc(Nc3cc4c(cc3F)N(C)S(=O)(=O)C4)n[nH]2)C1 (relative stereo)
input: Quick check, higher IC50 between A and B ? Answer = label.
output: B
(B: 36 nM, A: 2.6 nM)

1 = CC(C)NC(=O)O[C@H]1CC[C@@H](c2cc(Nc3ccc4c(c3)CNS4(=O)=O)n[nH]2)C1 (relative stereo)
2 = CC(C)NC(=O)O[C@H]1CC[C@@H](c2cc(Nc3ccc4c(c3F)CN(C3CCN(S(C)(=O)=O)CC3)S4(=O)=O)n[nH]2)C1 (relative stereo)
3 = CC(C)NC(=O)O[C@H]1CC[C@@H](c2cc(Nc3ccc4c(c3F)CNS4(=O)=O)n[nH]2)C1 (single isomer, unassigned) [Example 9b]
input: Order each entry by recorded IC50, climbing from the minimum. Arrange the labels as the request states and list them.
output: 1, 3, 2

1 = COCC(C)(C)NC(=O)O[C@H]1CC[C@@H](c2cc(Nc3ccc4c(c3F)CS(=O)(=O)N4)n[nH]2)C1 (relative stereo)
2 = CC(C)NC(=O)O[C@H]1CC[C@@H](c2cc(Nc3cc(F)c4c(c3)CS(=O)(=O)N4)n[nH]2)C1 (relative stereo)
3 = CC1(NC(=O)O[C@H]2CC[C@@H](c3cc(Nc4ccc5c(c4)CS(=O)(=O)N5)n[nH]3)C2)CC1 (relative stereo)
4 = O=C(NC1CC2(CCC2)C1)O[C@H]1CC[C@@H](c2cc(Nc3ccc4c(c3F)CNS4(=O)=O)n[nH]2)C1 (relative stereo)
5 = CCCNC(=O)O[C@H]1CC[C@@H](c2cc(Nc3ccc4c(c3F)CS(=O)(=O)N4CC(F)(F)F)n[nH]2)C1 [Example 266b]
input: Order field: IC50 | Direction: descending (largest first) Arrange the labels as the request states and list them.
output: 4, 3, 5, 1, 2

---

target_entity: CDK1/Cyclin B1 (Homo sapiens)
Sequence (P06493 whole entry): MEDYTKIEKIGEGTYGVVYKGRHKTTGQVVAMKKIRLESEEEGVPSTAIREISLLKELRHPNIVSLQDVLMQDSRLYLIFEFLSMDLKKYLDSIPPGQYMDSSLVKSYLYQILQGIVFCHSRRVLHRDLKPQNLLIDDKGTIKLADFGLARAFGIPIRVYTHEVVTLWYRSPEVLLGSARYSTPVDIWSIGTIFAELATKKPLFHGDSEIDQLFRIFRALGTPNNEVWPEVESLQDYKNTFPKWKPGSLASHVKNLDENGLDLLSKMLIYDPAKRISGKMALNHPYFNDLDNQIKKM
Sequence (P14635 whole entry partner): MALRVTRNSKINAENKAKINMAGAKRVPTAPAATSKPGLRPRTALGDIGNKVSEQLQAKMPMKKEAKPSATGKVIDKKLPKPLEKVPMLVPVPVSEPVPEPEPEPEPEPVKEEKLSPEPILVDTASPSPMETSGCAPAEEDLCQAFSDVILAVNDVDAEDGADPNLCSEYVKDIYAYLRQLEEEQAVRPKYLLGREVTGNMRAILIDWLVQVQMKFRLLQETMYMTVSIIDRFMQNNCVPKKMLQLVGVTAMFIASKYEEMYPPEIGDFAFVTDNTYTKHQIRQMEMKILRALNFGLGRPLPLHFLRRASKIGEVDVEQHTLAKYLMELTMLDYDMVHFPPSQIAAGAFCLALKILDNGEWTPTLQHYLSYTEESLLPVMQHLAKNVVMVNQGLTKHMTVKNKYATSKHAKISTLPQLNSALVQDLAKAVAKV
experiment: CDK1/Cyclin B1 Biochemical Assay (TR-FRET), 0.015 mM ATP
assay_setup: 0.15 μM Rb (Ser780)-biotin substrate, pH7.0, 60 min preincubation, 120 min reaction, room temperature
measurement_kind: IC50 (nM)

CN1Cc2c(ccc(Nc3cc([C@@H]4CC[C@H](OC(=O)N[C@H]5CC[C@@](C)(O)CC5)C4)[nH]n3)c2F)S1(=O)=O (relative stereo) : 471
CC(C)NC(=O)O[C@H]1CC[C@@H](c2cc(Nc3ccc4c(c3F)CS(=O)(=O)N4C3COC3)n[nH]2)C1 (single isomer, unassigned) [Example 259a] : 364
CN1Cc2c(ccc(Nc3cc([C@@H]4CC[C@H](OC(=O)NC5CCC(O)CC5)C4)[nH]n3)c2F)S1(=O)=O (single isomer, unassigned) [Example 166] : 74
CC1(NC(=O)O[C@H]2CC[C@@H](c3cc(Nc4ccc5c(c4F)CS(=O)(=O)N5C4CC4)n[nH]3)C2)CCOC1 (relative stereo) : 95
CC(C)NC(=O)O[C@H]1CC[C@@H](c2cc(Nc3ccc4c(c3F)CN(C(C)C)S4(=O)=O)n[nH]2)C1 (relative stereo) : 299
COCCN1Cc2ccc(Nc3cc([C@@H]4CC[C@H](OC(=O)NC(C)C)C4)[nH]n3)c(F)c2S1(=O)=O (relative stereo) : 191
[2H]C([2H])([2H])N1c2ccc(Nc3cc([C@@H]4CC[C@H](OC(=O)NCCC)C4)[nH]n3)c(F)c2CS1(=O)=O (single isomer, unassigned) [Example 268b] : 75

I = Cc1cc2c(cc1Nc1cc([C@@H]3CC[C@H](OC(=O)NC(C)C)C3)[nH]n1)S(=O)(=O)NC2 (relative stereo)
II = O=C(NC1CCC1)O[C@H]1CC[C@@H](c2cc(Nc3ccc4c(c3)CS(=O)(=O)N4)n[nH]2)C1 (single isomer, unassigned) [Example 380a]
III = CC1(O)CCN(C(=O)O[C@H]2CC[C@@H](c3cc(Nc4ccc5c(c4)CNS5(=O)=O)n[nH]3)C2)C1 (relative stereo)
IV = CC(CC(F)(F)F)NC(=O)O[C@H]1CC[C@@H](c2cc(Nc3ccc4c(c3F)CNS4(=O)=O)n[nH]2)C1 (relative stereo)
V = CC(C)NC(=O)O[C@H]1CC[C@@H](c2cc(Nc3ccc4c(c3)C3(CC3)S(=O)(=O)N4C)n[nH]2)C1 (relative stereo)
input: Order each entry by recorded IC50, climbing from the minimum. Arrange the labels as the request states and list them.
output: IV, II, V, III, I
